- Condition description: human, 4 h, pH 7.4
// values below are reported The cumulative amount of test compounds

Compound | The cumulative amount of test compounds
CCC(CC)OC(=O)[C@H](Cc1ccc(OC(=O)c2ccccc2)c(OC(=O)c2ccccc2)c1)NC(=O)C1CCCN1 (some centres unmarked) | 2.33 mg
NC(Cc1ccc(O)c(O)c1)C(=O)O (centres unmarked) | 0.002 mg
CC(C)OC(=O)[C@H](Cc1ccc(OC(=O)c2ccccc2)c(OC(=O)c2ccccc2)c1)NC(=O)OC1CCN2CCCCC12 (some centres unmarked) [Compound-22, acetate] | 1.78 mg
CCCCC(=O)Oc1ccc(C[C@H](N)C(=O)OC(C)C)cc1OC(=O)CCCC.Cl | 2.10 mg
CC(C(=O)SCCN(C)C)c1cccc(Oc2ccccc2)c1.Cl (centres unmarked) | 4.65 mg
CC(OC(=O)NCCc1ccc2c(c1)OC(=O)C(N)CC(=O)O2)OC(=O)C(C)C (centres unmarked) | 2.43 mg
CCN(CC)CCOC(=O)C(C)c1ccc(CC(C)C)cc1.Cl (centres unmarked) | 4.57 mg
CC(C(=O)OCCN(C)C)c1cccc(Oc2ccccc2)c1.Cl (centres unmarked) | 4.58 mg

----------
- Condition description: human, 2 h, pH 7.4
Counter-ions that a name gives are not always drawn.

Compound | The cumulative amount of test compounds
NC(Cc1ccc(O)c(O)c1)C(=O)O (stereo not shown) | 0.001 mg
CC(C(=O)O)c1cccc(Oc2ccccc2)c1 (stereo not shown) [Compound-34, 2-(3-phenoxyphenyl) propionic acid, reference compound] | 0.001 mg
CNCC(=O)Oc1cc(C[C@H](NC(=O)OC(C)OC(=O)C(C)C)C(=O)OC(C)C)ccc1OC(=O)c1ccccc1 (stereo partly shown) [Compound-21(b), hydrochloride] | 1.05 mg
CC(OC(=O)NCCc1ccc2c(c1)OC(=O)C(N)CC(=O)O2)OC(=O)C(C)C (stereo not shown) | 1.22 mg
CC(C)OC(=O)[C@H](Cc1ccc(OC(=O)c2ccccc2)c(OC(=O)c2ccccc2)c1)NC(=O)CN.Cl | 1.13 mg
CC(C)OC(=O)[C@H](Cc1ccc(OC(=O)c2ccccc2)c(OC(=O)c2ccccc2)c1)NC(=O)C1CCNCC1 [Compound-18, hydrochloride] | 1.03 mg
CCOC(=O)[C@@H](N)Cc1ccc(OC(C)=O)c(OC(C)=O)c1.Cl | 1.21 mg

----------
- Condition description: human, 8 h, pH 7.4
Where a name gives a salt, the structure may show the parent alone.
Item-by-item account of The cumulative amount of test compounds

Molecule | Unit text | The cumulative amount of test compounds
NC(Cc1ccc(O)c(O)c1)C(=O)O (centres unmarked) | mg | 0.003
CCN(CC)CCOC(=O)C(C)c1ccc(CC(C)C)cc1.Cl (centres unmarked) | mg | 9.19
CC(C(=O)O)c1cccc(Oc2ccccc2)c1 (centres unmarked) [Compound-34, 2-(3-phenoxyphenyl) propionic acid, reference compound] | mg | 0.003
CCC(CC)C(=O)Oc1ccc(CCNC(=O)C2CCNCC2)cc1OC(=O)C(CC)CC.Cl | mg | 5.03
CCOC(=O)NCCc1ccc(OC(=O)CNC)c(OC(=O)c2ccccc2)c1 [Compound-9b, hydrochloride] | mg | 4.95
CC(C)OC(=O)[C@H](Cc1ccc(OC(=O)C(C)C)c(OC(=O)C(C)C)c1)NC(=O)C1CCN2CCCCC2C1.Cl (some centres unmarked) | mg | 4.09
CC(=O)Oc1ccccc1C(=O)O [Compound-32, acetylsalicylic acid, reference compound] | mg | 0.003
CC(C(=O)OCCN(C)C)c1cccc(Oc2ccccc2)c1.Cl (centres unmarked) | mg | 9.22
